Can you tell me log10 of Ki for the items I'm about to list?
Biological target: T1, human factor XIIa (human, UniProt P00748 20-615, biotinylated with Biotin Ester (Zymed); sites not stated)
T1 chain: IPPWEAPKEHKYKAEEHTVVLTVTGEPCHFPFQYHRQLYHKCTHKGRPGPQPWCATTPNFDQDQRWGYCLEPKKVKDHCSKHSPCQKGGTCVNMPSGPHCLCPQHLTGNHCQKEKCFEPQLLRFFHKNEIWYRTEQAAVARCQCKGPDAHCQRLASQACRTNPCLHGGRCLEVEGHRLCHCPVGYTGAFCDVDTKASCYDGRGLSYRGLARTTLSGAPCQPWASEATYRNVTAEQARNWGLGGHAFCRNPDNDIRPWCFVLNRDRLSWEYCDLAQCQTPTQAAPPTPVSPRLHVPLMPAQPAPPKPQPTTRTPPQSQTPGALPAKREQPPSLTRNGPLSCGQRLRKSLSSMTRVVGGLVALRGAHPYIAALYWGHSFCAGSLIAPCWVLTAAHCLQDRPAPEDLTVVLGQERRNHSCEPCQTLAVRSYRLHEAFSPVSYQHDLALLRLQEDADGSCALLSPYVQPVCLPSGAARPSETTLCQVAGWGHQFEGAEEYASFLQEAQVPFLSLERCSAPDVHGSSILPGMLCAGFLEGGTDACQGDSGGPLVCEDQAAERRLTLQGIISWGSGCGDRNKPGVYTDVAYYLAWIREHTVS
Assay: enzyme inhibition
Each number you see is log10 of Ki, and the unit inside the log is nM.

Some binders with known log10 of Ki results, for comparison:
BG032 (protein) EVVREVCSEQAESGPCRAMISRWYFDVTEGKCAPFFYGGCGGNRNNFDTEEYCMAVCGSAI : 2.86
BG031 (protein) EVVREVCSEQAEVGPCRAMISRWYFDVTEGKCAPFFYGGCGGNRNNFDTEEYCMAVCGSAI : 2.70
DD112 (protein) EVVREVCSEQAETGPCRAVISRWYFDVTEGKCAPFFYGGCGGNRNNFDTEEYCMAVCGSAI : 3.00

Give log10 of Ki for each listed item.
1. DD109 (protein) EVVREVCSEQAETGPCRAIISRWYFDVTEGKCAPFFYGGCGGNRNNFDTEEYCMAVCGSAI
2. wild-type KPI (-4→57) (peptide) LDKREVVREVCSEQAETGPCRAMISRWYFDVTEGKCAPFFYGGCGGNRNNFDTEEYCMAVCGSAI

1: 3.23; 2: 3.57

Give log10 of Ki for each listed item.
1. TW6167 (protein) EVVREVCSEQAEPGPCRAMISRWYFDVTEGKCAPFFYGGCGGNRNNFDTEEYCMAVCGSAI
2. DD108 (protein) EVVREVCSEQAETGPCRAAISRWYFDVTEGKCAPFFYGGCGGNRNNFDTEEYCMAVCGSAI
3. DD110 (protein) EVVREVCSEQAETGPCRALISRWYFDVTEGKCAPFFYGGCGGNRNNFDTEEYCMAVCGSAI
4. TW6179 (protein) EVVREVCSEQAETGPCRAGISRWYFDVTEGKCAPFFYGGCGGNRNNFDTEEYCMAVCGSAI

1: 3.56; 2: 3.20; 3: 2.80; 4: 2.57

# query: log10 of Ki of entry TW6208 (protein) EVVREVCSEQAETGPCRGMISRWYFDVTEGKCAPFFYGGCGGNRNNFDTEEYCMAVCGSAI 2.57
